B1: KLHL14 (parent)
chain: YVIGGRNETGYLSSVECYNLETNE

# Variants of: B1
# assay-protocol: protein stability index of a GFP-peptide fusion (GPS, HEK-293T) (PSI 1-6); higher = more stable;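 note: lentivirally expressed fusions sorted by FACS into six bins by GFP to DsRed ratio, PSI derived from sequencing read proportions per bin multiplied by bin number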
# cond: c terminus: a fixed tail appended
quantity-name: protein stability index

{"columns": ["mutation-key", "recorded-number"],
 "data": [
  ["S14V", 2.08],
  ["V2K", 3.91],
  ["E21C", 2.61],
  ["Y18A", 2.76],
  ["C17K", 2.28],
  ["N7E", 2.59],
  ["I3F", 1.76],
  ["T22V", 2.6],
  ["T22A", 2],
  ["E8H", 2.02],
  ["Y18Q", 2.34],
  ["N19G", 1.7],
  ["Y18P", 2.45],
  ["L20W", 1.55],
  ["G4E", 2.11],
  ["T22L", 2.1],
  ["G4W", 2.32],
  ["G5K", 1.76],
  ["C17F", 1.66],
  ["E21Q", 2.39],
  ["I3P", 2.65],
  ["S14Y", 2.01]
]}
